Tested on: Gram-negative bacterial strains
Assay: organism not typed
Conditions: read-out: GM (mean MIC of Gram-negative bacterial strains)
Description: The Gram-negative bacterial strain Escherichia coli (KCTC 1682) and Gram-positive bacterial strain Staphylococcus aureus (KCTC 1621) were purchased from the Korean Collection for Type Cultures (Jeongeup, Korea). […] The minimum inhibitory concentrations (MIC) of the AMP and antibiotics against the various bacterial strains were assessed using the serial dilution method on Muller–Hinton (MH) media, as described previously. […]
property-name: MIC (µg/mL)
Numbers only here, please. The scale is µg/mL.

# substance-smiles, property-name, quantitative-readout
records = [
    ("C[C@@H](O)[C@H]1C(=O)N2C(C(=O)O)=C(S[C@@H]3CN[C@H](C(=O)N(C)C)C3)[C@H](C)[C@H]12", "MIC", 64),
    ("C[C@@H](O)[C@H]1C(=O)N2C(C(=O)O)=C(SCCN=CN)C[C@H]12", "MIC", 46),
    ("CO[C@H]1/C=C/O[C@@]2(C)Oc3c(C)c(O)c4c(O)c(c(/C=N/N5CCN(C)CC5)c(O)c4c3C2=O)NC(=O)/C(C)=C\\C=C\\[C@H](C)[C@H](O)[C@@H](C)[C@@H](O)[C@@H](C)[C@H](OC(C)=O)[C@@H]1C", "MIC", 101),
    ("CC[C@H]1OC(=O)[C@H](C)[C@@H](O[C@H]2C[C@@](C)(OC)[C@@H](O)[C@H](C)O2)[C@H](C)[C@@H](O[C@@H]2O[C@H](C)C[C@H](N(C)C)[C@H]2O)[C@](C)(O)C[C@@H](C)C(=O)[C@H](C)[C@@H](O)[C@]1(C)O", "MIC", 592),
]

// field: MIC; key: CN[C@H](CC(C)C)C(=O)N[C@H]1C(=O)N[C@@H](CC(N)=O)C(=O)N[C@H]2C(=O)N[C@H]3C(=O)N[C@H](C(=O)N[C@H](C(=O)O)c4cc(O)cc(O)c4-c4cc3ccc4O)[C@H](O)c3ccc(c(Cl)c3)Oc3cc2cc(c3O[C@@H]2O[C@H](CO)[C@@H](O)[C@H](O)[C@H]2O[C@H]2C[C@](C)(N)[C@H](O)[C@H](C)O2)Oc2ccc(cc2Cl)[C@H]1O ; value = 274

The compound CC(=O)NC[C@H]1CN(c2ccc(N3CCOCC3)c(F)c2)C(=O)O1 showed MIC equal to 329
